Origin of measurements: ChEMBL document CHEMBL1157692

# studySystem: E-selectin (Homo sapiens) (UniProt P16581)
# Sequence (P16581 whole entry): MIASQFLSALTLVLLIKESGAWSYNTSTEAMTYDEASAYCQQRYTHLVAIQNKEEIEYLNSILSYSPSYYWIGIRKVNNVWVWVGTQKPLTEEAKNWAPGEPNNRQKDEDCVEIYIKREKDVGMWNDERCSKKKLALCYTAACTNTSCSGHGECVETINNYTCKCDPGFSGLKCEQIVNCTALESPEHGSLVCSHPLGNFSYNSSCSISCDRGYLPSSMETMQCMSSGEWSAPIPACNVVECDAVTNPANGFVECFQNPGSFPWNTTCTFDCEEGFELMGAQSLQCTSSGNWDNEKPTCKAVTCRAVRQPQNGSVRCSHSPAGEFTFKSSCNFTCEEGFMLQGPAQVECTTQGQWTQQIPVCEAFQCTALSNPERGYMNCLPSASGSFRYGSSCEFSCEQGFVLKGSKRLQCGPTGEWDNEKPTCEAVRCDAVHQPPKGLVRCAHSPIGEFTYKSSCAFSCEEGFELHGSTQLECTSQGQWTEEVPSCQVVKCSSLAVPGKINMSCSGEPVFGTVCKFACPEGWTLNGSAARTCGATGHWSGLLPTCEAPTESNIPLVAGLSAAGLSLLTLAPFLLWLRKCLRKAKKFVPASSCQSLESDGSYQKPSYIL
# measurementDescription: Ratio of compound IC50 to sialyl Lewis X IC50 for E-selectin by ELISA
Documented Ratio IC50 across a set of compounds
Could you respond with only the numeric value?

Worked set:
C[C@@H]1O[C@@H](O[C@@H]2CCCC[C@H]2O[C@@H]2O[C@H](CO)[C@H](O)[C@H](O[C@@H](Cn3cc(-c4cccnc4)nn3)C(=O)O)[C@H]2O)[C@@H](O)[C@H](O)[C@@H]1O 3.13
C[C@@H]1O[C@@H](O[C@@H]2CCCC[C@H]2O[C@@H]2O[C@H](CO)[C@H](O)[C@H](O[C@@H](CN=[N+]=[N-])C(=O)O)[C@H]2O)[C@@H](O)[C@H](O)[C@@H]1O 0.29

// lookup Ratio IC50 for `C[C@@H]1O[C@@H](O[C@@H]2CCCC[C@H]2O[C@@H]2O[C@H](CO)[C@H](O)[C@H](O[C@@H](Cn3cc(Cn4nnc5c4CCCC5)nn3)C(=O)O)[C@H]2O)[C@@H](O)[C@H](O)[C@@H]1O`
1.22

Name the reported Ratio IC50 value associated with the compound `C[C@@H]1O[C@@H](O[C@@H]2CCCC[C@H]2O[C@@H]2O[C@H](CO)[C@H](O)[C@H](O[C@@H](CC3CCCCC3)C(=O)O)[C@H]2O)[C@@H](O)[C@H](O)[C@@H]1O`
0.08

Looking for the measured Ratio IC50 of `C[C@@H]1O[C@@H](O[C@@H]2CCCC[C@H]2O[C@@H]2O[C@H](CO)[C@H](O)[C@H](O[C@@H](Cn3cc(Cc4ccccc4)nn3)C(=O)O)[C@H]2O)[C@@H](O)[C@H](O)[C@@H]1O` , can you help?
1.03

Please look up its Ratio IC50: `C[C@@H]1O[C@@H](O[C@@H]2CCCC[C@H]2O[C@@H]2O[C@H](CO)[C@H](O)[C@H](O[C@@H](Cn3ccnn3)C(=O)O)[C@H]2O)[C@@H](O)[C@H](O)[C@@H]1O`
0.48

Sample `C[C@@H]1O[C@@H](O[C@@H]2CCCC[C@H]2O[C@@H]2O[C@H](CO)[C@H](O)[C@H](O[C@@H](Cn3cc(-c4ccsc4)nn3)C(=O)O)[C@H]2O)[C@@H](O)[C@H](O)[C@@H]1O` — what was its Ratio IC50?
0.88

Which value of Ratio IC50 has been reported for `C[C@@H]1O[C@@H](O[C@@H]2CCCC[C@H]2O[C@@H]2O[C@H](CO)[C@H](O)[C@H](O[C@@H](Cn3cc(Cn4nnc5ccccc54)nn3)C(=O)O)[C@H]2O)[C@@H](O)[C@H](O)[C@@H]1O` in the records?
1.18
